# System: U266
# assay procedure: Viability assay by flow cytometry
# Assay type: cell-based
# applied conditions: read-out: LC50 (Viability); U266, 48 hrs

smiles notation | measurement target | CC50
N[C@@H]1CCCN(c2c(/C=C3\SC(=O)NC3=O)cccc2-c2ccccc2)C1 | U266 | 56.6 µM

----------
# Test system: MM cell lines (RPMI8226, U266, MM1.S, KMS11)
# assay procedure: Viability assays, range over the four MM cell lines
# Type: cell-based
# applied conditions: read-out: LC50, range over MM cell lines

smiles notation | CC50
N[C@@H]1CCCN(c2c(/C=C3\SC(=O)NC3=O)cccc2-c2ccccc2)C1 | 23 to 56 µM

----------
# Test system: RPMI8226
# assay procedure: Viability assay by flow cytometry
# Type: cell-based
# applied conditions: read-out: LC50 (Viability); RPMI8226, 48 hrs
experimental readout: CC50 (µM)

smiles notation | reported result
N[C@@H]1CCCN(c2c(/C=C3\SC(=O)NC3=O)cccc2-c2ccccc2)C1 | 30

----------
# Tested on: MM1.S
# assay procedure: Viability assay by flow cytometry
# Assay type: cell-based
# applied conditions: read-out: LC50 (Viability); MM1S, 48 hrs
experimental readout: CC50 (µM)

smiles notation | reported result
N[C@@H]1CCCN(c2c(/C=C3\SC(=O)NC3=O)cccc2-c2ccccc2)C1 | 23.7
